Test system: NIH 3T3 fibroblasts
Assay: Cytotoxicity against NIH 3T3 fibroblasts (MTS assay)
Assay type: cell-based
Conditions: Table 2; MTS assay
Description: Antiplasmodial activity was tested in P falciparum chloroquine resistant Dd2, and the cytotoxicity was assessed in NIH 3T3 fibroblasts cells. Asynchronous cultures were exposed to different concentrations of inhibitor for 72 hrs. […] The cytotoxicity against NIH 3T3 fibroblasts was evaluated using an MTS assay [(3-(4,5-dimethylthiazol-2-yl)-5-(3-carboxymethoxyphenyl)-2-(4-sulfophenyl)-2H-tetrazolium), CellTiter 96® Aqueous non-radioactive cell proliferation assay, Promega
Below, each entry is listed with its recorded pIC50.
Keep in mind that pIC50 stands for -log10 of concentration in molar terms.

Molecule | Test Target | pIC50
CN1CC(c2c[nH]c3c(Br)c(Br)cc(O)c23)NCC1c1c[nH]c2cc(Br)ccc12 (stereo not shown) | NIH 3T3 fibroblasts | 5.11
NC(N)=NCCSc1nc(-c2c[nH]c3cc(Br)ccc23)cnc1-c1c[nH]c2cc(Br)ccc12 | NIH 3T3 fibroblasts | 5.11
O=C1N[C@@H](c2c[nH]c3cc(Br)ccc23)CN=C1c1c[nH]c2cc(Br)ccc12 | NIH 3T3 fibroblasts | 4.52

From here, focus on the item given below.
Annotate the molecule "O=C1NC[C@H](c2c[nH]c3cc(Br)ccc23)N=C1c1c[nH]c2cc(Br)ccc12" with its measured pIC50.
4.41

Where do these numbers come from? They come from patent US9181251B2.
